system: RF-48 (B-Cell Non-Hodgkin's Lymphoma); test: combination Emax (second highest fraction inhibited in the dose matrix, 72 h); higher = more inhibition; extreme values may be limits of the assay
Item-by-item account of combination Emax
readout.label: combination Emax

* CN(CCO)CC[C@H](CSc1ccccc1)Nc1ccc(S(=O)(=O)NC(=O)c2ccc(N3CCC([C@@H](O)c4ccccc4-c4ccc(Cl)cc4)CC3)cc2)cc1S(=O)(=O)C(F)(F)F [AZD4320] + C1CN(CCC1(C(=O)N[C@@H](CCO)C2=CC=C(C=C2)Cl)N)C3=NC=NC4=C3C=CN4 [Capivasertib] (first compound max 1 µM, 7x7, partner max 3 µM) | 0.817
* CN(C)CCCOc1ccc(-c2ccc3ncc4c(c3c2)n(C2CCOCC2)c(=O)n4C)cn1 [AZD0156] + CCN(CCO)CCCOc1ccc2c(Nc3cc(CC(=O)Nc4cccc(F)c4)[nH]n3)ncnc2c1 [AZD2811] (first compound max 1 µM, 7x7, partner max 1 µM) | 0.305
* Cn1cnc2c(F)c(Nc3ccc(Br)cc3Cl)c(C(=O)NOCCO)cc21 [Selumetinib] + CC(C)n1c(=O)n(C)c2cnc3cc(F)c(-c4ccc(OCCCN5CCCCC5)nc4)cc3c21 [AZD1390] (first compound max 10 µM, 7x7, partner max 0.3 µM) | 0.119
